- targetDesc: KRAS WT (Homo sapiens (Human), UniProt P01116+P62937)
- Sequence (P01116-2 other isoform, or with tags, fused parts or gaps, one chain of several): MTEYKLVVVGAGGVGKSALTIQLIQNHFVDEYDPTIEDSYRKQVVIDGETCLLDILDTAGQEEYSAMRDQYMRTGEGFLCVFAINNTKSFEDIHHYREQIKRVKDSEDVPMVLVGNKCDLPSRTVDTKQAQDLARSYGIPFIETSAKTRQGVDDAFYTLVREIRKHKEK
- test: Ras-Raf (BRAF RBD) disruption / FRET / MOA assay, KRAS WT
- Assay type: biochemical
- measurementSetup: read-out: IC50* KRAS WT FRET data
pIC50: −log10 of the molar value.
I'd be grateful if you could share measured pIC50 for these entries.

pIC50 reported for this compound C=CC(=O)N1CC2(CCN2C(=O)N(C)[C@H](C(=O)N[C@H]2Cc3nc(n(C)n3)-c3ccc4c(c3)c(c(-c3cccnc3[C@H](C)OC)n4CC)CC(C)(C)COC(=O)[C@@H]3CCCN(N3)C2=O)C(C)C)C1 (atropisomer, axis not shown) : 6.00 to 7.00

pIC50 reported for this compound C=CC(=O)N1C[C@H](C)N(C(=O)N(C)[C@H](C(=O)N[C@H]2Cc3nc(cs3)-c3ccc4c(c3)c(c(-c3cccnc3[C@H](C)OC)n4CC)CC(C)(C)COC(=O)[C@@H]3CCCN(N3)C2=O)C(C)C)[C@@H](C)C1 (atropisomer, axis not shown) : 7.00 to 8.00

pIC50 reported for this compound C=CC(=O)N1CCOC2(CCN(C(=O)N(C)[C@H](C(=O)N[C@H]3Cc4nc(n(C)n4)-c4ccc5c(c4)c(c(-c4cccnc4[C@H](C)OC)n5CC(F)(F)F)CC(C)(C)COC(=O)[C@@H]4CCCN(N4)C3=O)C(C)C)CC2)C1 (atropisomer, axis not shown) : 6.00 to 7.00

pIC50 reported for this compound CCn1c(-c2cccnc2[C@H](C)OC)c2c3cc(ccc31)-c1csc(n1)C[C@H](NC(=O)[C@H](C(C)C)N(C)C(=O)N1CCC13CN(C(=O)C#CC(C)(C)N(C)C)C3)C(=O)N1CCC[C@H](N1)C(=O)OCC(C)(C)C2 (atropisomer, axis not shown) : 6.00 to 7.00

pIC50 reported for this compound CO[C@@H](COC1CN(C(=O)C#CC(C)(C)N(C)C)C1)C(=O)N[C@H]1Cc2coc(n2)-c2ccc3c(c2)c(c(-c2cccnc2[C@H](C)OC)n3CC(F)(F)F)CC(C)(C)COC(=O)[C@@H]2CCCN(N2)C1=O (atropisomer, axis not shown) : 5.00 to 6.00

pIC50 reported for this compound CCn1c(-c2ccccc2CN(C)C)c2c3cc(ccc31)-c1cc(O)cc(c1)C[C@H](NC(=O)[C@@H](C(C)C)N(C)C(=O)c1ncc(NC(=O)/C=C/CN(C)C)n1C)C(=O)N1CCC[C@H](N1)C(=O)OCC(C)(C)C2 : < 5.00

pIC50 reported for this compound C=CC(=O)N1CC[C@H](C(=O)N(C)c2ccccc2C(=O)N[C@H]2Cc3cc(O)cc(c3)-c3ccc4c(c3)c(c(-c3cnccc3COC)n4CC)CC(C)(C)COC(=O)[C@@H]3CCCN(N3)C2=O)C1 : < 5.00

pIC50 reported for this compound C=CC(=O)N1CCC2(CC1)OCN([C@H](C(=O)N[C@H]1Cc3cccc(c3)-c3ccc4c(c3)c(c(-c3cccnc3[C@H](C)OC)n4CC)CC(C)(C)COC(=O)[C@@H]3CCCN(N3)C1=O)C(C)C)C2=O (atropisomer, axis not shown) : 6.00 to 7.00

---

- targetDesc: NRAS Q61R (Homo sapiens (Human), UniProt P01111+P62937, Q61R)
- Sequence (P01111 whole entry Q61R): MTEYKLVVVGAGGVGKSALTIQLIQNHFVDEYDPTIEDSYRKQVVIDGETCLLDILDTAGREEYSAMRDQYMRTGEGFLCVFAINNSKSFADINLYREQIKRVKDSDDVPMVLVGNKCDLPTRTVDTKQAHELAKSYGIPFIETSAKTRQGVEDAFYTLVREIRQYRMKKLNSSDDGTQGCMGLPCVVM
- Sequence (P62937 whole entry): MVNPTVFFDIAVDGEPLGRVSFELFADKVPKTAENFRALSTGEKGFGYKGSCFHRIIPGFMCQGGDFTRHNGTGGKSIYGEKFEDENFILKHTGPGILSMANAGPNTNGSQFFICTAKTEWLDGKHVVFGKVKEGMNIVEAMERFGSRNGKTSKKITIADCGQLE
- test: Ras-Raf (BRAF RBD) disruption / FRET / MOA assay, NRAS Q61R
- Type: biochemical
- measurementSetup: NRAS Q61R; Ras-Raf disruption/FRET/MOA assay; read-out: IC50* NRAS Q61R FRET data
pIC50: −log10 of the molar value.
measurementKind: pIC50

pIC50 reported for this compound CCn1c(-c2cccnc2[C@H](C)OC)c2c3cc(ccc31)N1CCO[C@@H](C[C@H](NC(=O)[C@H](C(C)C)N(C)C(=O)C3(F)CCN(C(=O)C#CC(C)(C)N(C)C)CC3)C(=O)N3CCC[C@H](N3)C(=O)OCC(C)(C)C2)C1 (atropisomer, axis not shown) [Example A647] : 5.00 to 6.00

pIC50 reported for this compound C=CC(=O)N(C)C1CN(C(=O)N(C)[C@H](C(=O)N[C@H]2Cc3nc(cs3)-c3ccc4c(c3)c(c(-c3cccnc3[C@H](C)OC)n4CC)CC(C)(C)COC(=O)[C@@H]3CCCN(N3)C2=O)C(C)C)C1 (atropisomer, axis not shown) [Example A463] : 6.00 to 7.00
